Biological target: oxytocin receptors (OTR) (Homo sapiens)
Construct: endogenous in cells; host or cells: primary human term pregnant myometrial cells (from C-section tissue, collagenase dispersion)
Experiment: Competition with 125I-OTA for OTR binding, whole-cell assay in human myometrial cells
Settings: FIG. 1, read-out: 50% inhibitory concentration (IC50), 125I-OTA binding to OTR
endpoint: pIC50
Note: pIC50 values are expressed as the negative base-10 logarithm of concentration in M.

Per the record, Cc1c(C)c2c(c(C)c1O)CCC(C)(COc1ccc(CC3SC(=O)NC3=O)cc1)O2 (racemic) has pIC50 of 7.80

* * *

Target: oxytocin receptors (OTR) (Homo sapiens, UniProt P30559)
Construct: endogenous in cells; host or cells: primary human term pregnant myometrial cells (from C-section tissue, collagenase dispersion)
Sequence (P30559 whole entry): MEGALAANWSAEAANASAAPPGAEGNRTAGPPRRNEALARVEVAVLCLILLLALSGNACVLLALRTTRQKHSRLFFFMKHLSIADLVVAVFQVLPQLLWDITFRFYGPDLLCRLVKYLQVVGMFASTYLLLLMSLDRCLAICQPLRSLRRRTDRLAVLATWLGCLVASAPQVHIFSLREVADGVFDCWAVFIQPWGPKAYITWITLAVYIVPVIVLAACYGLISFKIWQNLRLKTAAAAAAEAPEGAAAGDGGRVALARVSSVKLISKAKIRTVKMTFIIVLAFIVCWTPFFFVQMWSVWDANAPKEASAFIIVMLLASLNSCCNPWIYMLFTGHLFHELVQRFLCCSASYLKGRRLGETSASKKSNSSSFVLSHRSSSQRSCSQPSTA
Experiment: Competition with 125I-OTA for OTR binding, whole-cell assay in human myometrial cells
Details: FIG. 1, read-out: IC50, 125I-OTA binding to OTR
Each entry below lists one item and its recorded IC50 value.

molecule="CCc1ccc(CCOc2ccc(CC3SC(=O)NC3=O)cc2)nc1 (stereo not drawn)" systemtested="oxytocin receptors (OTR) (Homo sapiens, UniProt P30559)" endpoint=IC50 result="~10.6 µM"

Per the record, CC(=O)[C@H]1CC[C@H]2[C@@H]3CC[C@H]4CC(=O)CC[C@]4(C)[C@H]3CC[C@]12C [5β-dihydroprogesterone] has IC50 of ~100 µM

Per the record, CN(CCOc1ccc(CC2SC(=O)NC2=O)cc1)c1ccccn1 (stereo not drawn) has IC50 of ~10.6 µM
